system: M14 melanoma; experiment: NCI-60 one-dose screen, 48 h (100 = growth as untreated, 0 = no growth, -100 = all killed); details: 10 µM unless noted
About 83,000 compounds went through this panel and 20% of them were active in at least one assay; those are over-represented in the sample as a whole.
Give measured growth for each item. Keep answers brief.
Numbers only, in %.

Example entries and their recorded answers appear below.
| compound | growth [%] |
| --- | --- |
| COc1ccc(C2CC(c3ccccc3)=NN2c2nc(C)c(C(C)=O)s2)cc1 (stereo unspecified) | 97.3 |
| CCOC(=O)C(O)C(O)(c1ccccc1)c1ccccc1 (stereo unspecified) | 101 |
| c1ccc2c(c1)nc(-n1ccnc1)c1nc3ccccc3n12 | 93.1 |
| CCN1CCN(c2ccc(Nc3cc(-c4cccnc4Nc4c(Cl)c(OC)cc(OC)c4Cl)ncn3)cc2)CC1 | 72.9 |

For every record below, what is its growth?
1. C=C(CNCCc1ccc(O)cc1)[C@@H]1CC[C@]2(COC3CCCCO3)CC[C@]3(C)[C@H](CC[C@@H]4[C@@]5(C)CCC(N)C(C)(C)[C@@H]5CC[C@]43C)[C@@H]12 (stereo partly specified)
2. COC(=O)[C@]12CC[C@@H](C)[C@H](C)[C@@H]1C1=CC[C@@H]3[C@@]4(C)C(C=O)=C[C@@](C)(CO)C4=CC[C@@]3(C)[C@]1(C)CC2
3. CCOC(=O)Cc1csc2nc(-c3ccccc3)nn12

Response line:
1. -88.6
2. 28.5
3. 104

For every record below, what is its growth?
1. CCN(CC)CCCNC(=O)c1ccc(N)cc1
2. C=CCN1C(=O)[C@]2(SC1=S)[C@H](c1cccc(Cl)c1)CN(C)[C@]21C(=O)NC2C=CC(Cl)=C[C@H]21 (stereo partly specified)
3. CCNCCNc1cc(-c2ccc(C#N)cc2)c(C#N)c2nc3ccccc3n12
4. CS(=O)(=O)c1ccc(N/N=C/c2c(-c3ccc(S(C)(=O)=O)cc3)[nH]c3ccc(F)cc23)cc1
5. Cc1ccc(/C(=N\N=C(N)N)c2ccccc2)cc1
6. CCn1c(Sc2nnc(Nc3ccccc3)s2)nc2c1c(=O)n(C)c(=O)n2C
7. COc1cc(C2C=C(c3cccc(NC(C)=O)c3)Nc3ncnn32)cc(OC)c1OC (stereo unspecified)

Response line:
98.7
29.9
-6.91
32.9
-43.5
104
20.4

For every record below, what is its growth?
1. COc1ccc(/C(C)=N/NS(=O)(=O)c2ccc(C)cc2)cc1OC
2. COc1ccc(Oc2nc(Nc3ccc(N4CCOCC4)nc3)ncc2NC(=O)c2cc(OC)cc(OC)c2)cc1
3. COc1cc(-c2cccc([N+](=O)[O-])c2)c(-c2nc(-c3ccccc3)c(-c3ccccc3)n2C2CC2)cc1OC
4. CN1CCN(CCCOc2ccc3nc(Nc4cc(Cl)cc(Cl)c4)ccc3c2)CC1
5. CCc1nc2ccccc2[nH]1

Response line:
1: 117; 2: 72.8; 3: 40; 4: -62.2; 5: 99.8

For every record below, what is its growth?
1. O=C1Nc2ccccc2/C1=N/N=C/c1ccsc1
2. C=C(CNCCc1ccc(O)cc1)[C@@H]1CC[C@]2(COC3CCCCO3)CC[C@]3(C)[C@H](CC[C@@H]4[C@@]5(C)CCC(NCCO)C(C)(C)[C@@H]5CC[C@]43C)[C@@H]12 (stereo partly specified)

Response line:
1. 105
2. -86.8

---

test system: HCC-2998 colon; assay: NCI-60 one-dose screen, 48 h (100 = growth as untreated, 0 = no growth, -100 = all killed); settings: 10 µM unless noted
The panel holds about 83,000 compounds, 20% with a hit somewhere; the sample as a whole holds those more often.
Class field: derived from growth; ranges LOW: < 30%; MEDIUM: ≥ 30% and < 90%; HIGH: ≥ 90%

Recorded results for 6 compounds are shown here.
| compound | class-label |
| --- | --- |
| C=C1c2c(C)nn(-c3ccc(N)cc3)c2N(C)C23CC1C1(C)c4c(C)nn(-c5ccc(N)cc5)c4N(C)C(C)(CC12)C3 (stereo unspecified) | MEDIUM |
| Cc1cc(Cc2cc(C)cc(C(C)(C)C)c2O)c(O)c(C(C)(C)C)c1 | MEDIUM |
| CCNCCNc1cc(-c2ccc(C#N)cc2)c(C#N)c2nc3ccccc3n12 | MEDIUM |
| NS(=O)(=O)Oc1ccc(NC(=O)C23CC4CC(CC(C4)C2)C3)cc1Cl | HIGH |
| C=C1c2c(C)nn(-c3ccc(O)cc3)c2N(C)C23C[C@@H]1C1(C)c4c(C)nn(-c5ccc(O)cc5)c4N(C)C(C)(C[C@H]12)C3 (stereo partly specified) | MEDIUM |
| N#C/C(=C\c1ccc(Br)cc1)n1nnc2ccccc21 | LOW |

Prompt line: State the class of the compound shown: O=C1/C(=C/c2ccccc2[N+](=O)[O-])COc2ccc(O)c(O)c21
Response line: LOW

Prompt line: State the class of the compound shown: N#Cc1c(-c2ccccc2)nc(SCC2CO2)nc1N1CCOCC1 (stereo unspecified)
Response line: HIGH

Prompt line: State the class of the compound shown: CCCCCCCCc1cc[n+](CC(=O)c2ccc(Br)cc2)cc1
Response line: LOW

Prompt line: State the class of the compound shown: Cc1c2c(cn1Cc1ccccc1)CCc1cn[nH]c1-2
Response line: MEDIUM

Prompt line: State the class of the compound shown: CCN1CCN(c2ccc(Nc3cc(-c4cccnc4Nc4c(Cl)c(OC)cc(OC)c4Cl)ncn3)cc2)CC1
Response line: MEDIUM

Prompt line: State the class of the compound shown: CCOC(=O)c1c2c(c(C)n1C)-c1nn(Cc3ccc(OC)cc3)cc1CC2
Response line: HIGH

---

system: SF-539 CNS; assay: NCI-60 one-dose screen, 48 h (100 = growth as untreated, 0 = no growth, -100 = all killed); settings: 10 µM unless noted
About 83,000 compounds went through this panel and 20% of them were active in at least one assay; those are over-represented in the sample as a whole.
Field: label. Allowed values: class 1 (growth < 90%) or class 0 (growth >= 90%).

Recorded results for 8 compounds are shown here.
| compound | class-label |
| --- | --- |
| CCCCOC(=O)c1ccc(NC(=O)C(C)N2CCOCC2)cc1 (configuration not stated) | class 0 |
| O=C(Nc1ccccn1)[C@H](O)[C@@H](O)C(=O)N1CCOCC1 | class 0 |
| CN(CCC(=O)/C(=C\c1ccccc1)c1ccc(Cl)cc1)Cc1ccccc1 | class 1 |
| COc1cc2c(cc1OC)-c1ccc3cc4c(cc3c1N(CCCN(C)C)C2)OCO4 | class 1 |
| Clc1ccc(-c2nnc(Cn3ccnc3)o2)cc1 | class 0 |
| CCOC(=O)c1ccc(NC(=O)CCCN(CC)CC)cc1 | class 0 |
| C=C(CNCCc1ccc(O)cc1)[C@@H]1CC[C@]2(COC3CCCCO3)CC[C@]3(C)[C@H](CC[C@@H]4[C@@]5(C)CCC(N)C(C)(C)[C@@H]5CC[C@]43C)[C@@H]12 (some centres not stated) | class 1 |
| CC(C)n1nc(C#Cc2cccc3cc(-c4cccc(C(F)(F)F)c4)ncc23)c2c(N)ncnc21 | class 1 |

Alright, here's another compound for you.
Prompt line: Strictly below 90%: is that where growth of C=C1C(=O)O[C@H]2[C@H]1CC/C(C(=O)NCCCCCCCCNC(=O)/C1=C/CC[C@@]3(C)O[C@H]3[C@H]3OC(=O)C(=C)[C@@H]3CC1)=C\CC[C@@]1(C)O[C@@H]21 sits?
Response line: class 1

---

system: 786-0 renal; assay: NCI-60 one-dose screen, 48 h (100 = growth as untreated, 0 = no growth, -100 = all killed); conditions: 10 µM unless noted
Compounds without any hit were thinned out: in the full panel of roughly 83,000, 20% have a hit. Active and inactive are the calls of the source. Rule for the calls: active = growth percent below 10; inactive = the rest.
measured-metric: growth

| compound | measured-metric | reported-value |
| --- | --- | --- |
| O=S(=O)(Cc1ccccc1)c1nc2ccccc2s1 | growth | 88.9% (inactive) |
| Clc1ccc(-c2nc(NCCc3ccccc3)nc3c(NCCc4ccccc4)cnn23)cc1 | growth | 80% (inactive) |
| COc1ccc(/C=C2\C=C(c3ccccc3)N(CCc3ccccc3)C2=O)cc1OC | growth | 8.93% (active) |

For every record below, what is its growth?
1. O=C(CCCCCCCn1cc(-c2cccnc2)nn1)Nc1ccccc1-c1ccccc1
2. C=CCN1C(=O)[C@]2(SC1=S)[C@H](c1cccc(Cl)c1)CN(C)[C@]21C(=O)NC2C=CC(Cl)=C[C@H]21 (some centres not stated)
3. Cc1cc(=O)c2cc3nc(-c4cccnc4)oc3c(Br)c2o1
4. CCOC(=O)c1c(C)nc2c(c1N)/C(=C/c1ccc(OC)cc1)C(=O)N2Cc1ccc(F)cc1

Response line:
["53.4% (inactive)", "24.8% (inactive)", "96.8% (inactive)", "-50.6% (active)"]
